For each record, write down the corresponding Kd.
Target: human galectin-3 (hGal-3) (Homo sapiens, UniProt P17931)
Construct: P.K. and P.B. prepared recombinant full-length hGal-3 and contributed to the ITC experiments
Sequence (P17931 whole entry): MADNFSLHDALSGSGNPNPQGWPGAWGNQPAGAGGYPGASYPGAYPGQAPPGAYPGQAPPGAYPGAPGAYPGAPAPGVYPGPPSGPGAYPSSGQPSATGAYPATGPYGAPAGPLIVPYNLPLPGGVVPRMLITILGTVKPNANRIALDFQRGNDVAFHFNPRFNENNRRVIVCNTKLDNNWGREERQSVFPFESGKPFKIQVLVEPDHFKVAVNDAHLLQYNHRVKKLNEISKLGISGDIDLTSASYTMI
Assay: Isothermal titration calorimetry (ITC) of sugar analogs with recombinant hGal-3
Conditions: 27 °C, pH 7.2, 20 mM PBS buffer, recombinant hGal-3, Kd calculated from 1/Ka, errors 1–7%
Put your answer as a value accompanied by its unit after it.

Guide cases for Kd, answers given:
O=[N+]([O-])c1ccc(O[C@@H]2O[C@H](CO)[C@@H](O[C@@H]3O[C@H](CO)[C@H](O)[C@H](O)[C@H]3O)[C@H](O)[C@H]2O)cc1; 50 µM
CC(=O)N[C@H]1[C@H](Oc2ccc([N+](=O)[O-])cc2)O[C@H](CO)[C@@H](O[C@@H]2O[C@H](CO)[C@H](O)[C@H](O)[C@H]2O)[C@@H]1O; 33.3 µM
C#CCO[C@@H]1O[C@H](CO)[C@@H](O[C@@H]2O[C@H](CO)[C@H](O)[C@H](OS(=O)(=O)O)[C@H]2O)[C@H](O)[C@H]1NC(C)=O; 14.7 µM
O=[N+]([O-])c1ccc(O[C@@H]2O[C@H](CO)[C@@H](O[C@@H]3O[C@H](CO)[C@H](O)[C@H](OS(=O)(=O)O)[C@H]3O)[C@H](O)[C@H]2O)cc1; 20.4 µM

Which Kd is listed for `C#CCO[C@@H]1O[C@H](CO)[C@@H](O[C@@H]2O[C@H](CO)[C@H](O)[C@H](OS(=O)(=O)O)[C@H]2O)[C@H](O)[C@H]1O` ?
37 µM

###

Target: human galectin-3 (hGal-3) (Homo sapiens, UniProt P17931)
Construct: P.K. and P.B. prepared recombinant full-length hGal-3 and contributed to the ITC experiments; made in house
Test: Isothermal titration calorimetry (ITC) of sugar analogs with recombinant hGal-3
Assay type: binding
Conditions: 27 °C, number of binding sites per hGal-3 monomer, errors less than 4%
Procedure: The Kd value of PNP LacNAc (20) was similar to that of its propargyl Lac analog 11. ITC experiments were performed using a VP-ITC instrument from GE. […] The Kd (dissociation constant) was calculated from 1/Ka. The quantity c = Ka Mt (0), where Mt (0) is the initial macromolecule concentration, is of importance in titration microcalorimetry. […]
READOUT KIND: n Sites/ Monomer
One number for each entry.

Examples from the recorded data:
C#CCO[C@@H]1O[C@H](CO)[C@@H](O[C@@H]2O[C@H](CO)[C@H](O)[C@H](OS(=O)(=O)O)[C@H]2O)[C@H](O)[C@H]1NC(C)=O; 1.07
O=[N+]([O-])c1ccc(O[C@@H]2O[C@H](CO)[C@@H](O[C@@H]3O[C@H](CO)[C@H](O)[C@H](OS(=O)(=O)O)[C@H]3O)[C@H](O)[C@H]2O)cc1; 0.97

Let us move to another entry and its n Sites/ Monomer.
For the compound C#CCOC1OC(CO)C(OC2OC(CO)C(O)C(OC3(C(=O)O)CC(O)C(NC(C)=O)C(C(O)C(O)CO)O3)C2O)C(O)C1NC(C)=O (stereo not drawn) , what n Sites/ Monomer is on record?
1.04

###

Molecular target: human galectin-3 (hGal-3) (Homo sapiens, UniProt P17931)
Construct: P.K. and P.B. prepared recombinant full-length hGal-3 and contributed to the ITC experiments; made in house
Experiment: Isothermal titration calorimetry (ITC) of sugar analogs with recombinant hGal-3
Type: binding
Settings: 27 °C, calculated from ΔG = -RT ln(Ka), errors less than 2%
READOUT KIND: −ΔG (kcal/mol)
Numbers only, in kcal/mol.

CC(=O)N[C@H]1[C@H](Oc2ccc([N+](=O)[O-])cc2)O[C@H](CO)[C@@H](O[C@@H]2O[C@H](CO)[C@H](O)[C@H](O)[C@H]2O)[C@@H]1O [Compound 20]; 6.1
C#CCO[C@@H]1O[C@H](CO)[C@@H](O[C@@H]2O[C@H](CO)[C@H](O)[C@H](O)[C@H]2O)[C@H](O)[C@H]1NC(C)=O [Compound 27]; 6.0
C#CCO[C@@H]1O[C@H](CO)[C@@H](O[C@@H]2O[C@H](CO)[C@H](O)[C@H](O)[C@H]2O)[C@H](O)[C@H]1O [Compound 4]; 5.9
O=[N+]([O-])c1ccc(O[C@@H]2O[C@H](CO)[C@@H](O[C@@H]3O[C@H](CO)[C@H](O)[C@H](O)[C@H]3O)[C@H](O)[C@H]2O)cc1 [Compound 6]; 5.9

Entry C#CCO[C@@H]1O[C@H](CO)[C@@H](O[C@@H]2O[C@H](CO)[C@H](O)[C@H](OS(=O)(=O)O)[C@H]2O)[C@H](O)[C@H]1O [Compound 11] : reported −ΔG = ?
6.1
